system: RPS6KA5(Kin.Dom.2-C-terminal); conditions: concentration: 1 μM,replicates: in singlicate; n = 1;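 note: KINOMEscan kinase panel screen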
Binary label based on %Inh with cut-off 1%: below gives rule met, not below gives rule not met.

Some solved entries appear below for comparison.
{"SMILES_NOTATION": "CCn1c(-c2nonc2N)nc2c(C#CC(C)(C)O)nc(OCCN)cc21.Cl.Cl", "LABEL_VALUE": "rule not met"}
{"SMILES_NOTATION": "Cc1cc2cn[nH]c2cc1-c1cccc2c(N)c(C(N)=O)nnc12", "LABEL_VALUE": "rule not met"}
{"SMILES_NOTATION": "Cc1cc(C(=O)Nc2ccc(Oc3ccc4nc(NC(=O)C5CC5)cn4n3)cc2)nn1-c1ccccc1", "LABEL_VALUE": "rule not met"}
{"SMILES_NOTATION": "Cc1occc1-c1nc(N)c(OC[C@@H](N)Cc2c[nH]c3ccccc23)cc1-c1cc2c(C)n[nH]c2cn1", "LABEL_VALUE": "rule met"}
{"SMILES_NOTATION": "C[C@@H]1CCN(C(=O)CC#N)C[C@@H]1N(C)c1ncnc2[nH]ccc12", "LABEL_VALUE": "rule met"}

Next, consider the following compound.
Strictly below 1%: is that where %Inh of CC(C)Nc1cc(-c2ccc3c(N)n[nH]c3c2)nc(N)n1 sits? rule not met

----------
system: BIKE; construct: gene BMP2K; conditions: concentration: 1 μM,replicates: in singlicate; n = 1
%Inh overview
I only need the number, in %, no unit after it.

{"COMPOUND": "CN(C)CC(O)COc1ccc(Nc2nccc(-c3cnn4nc(N5CCOCC5)ccc34)n2)cc1 (stereo not shown) [GW767488]", "VAL": 93.6}

Recorded %Inh of Cc1ccc2c(-c3ccncc3)c(-c3ccc(F)cc3)nn2c1.Cl [GW461484] , please. 19

Recorded %Inh of CN(C)CCOc1ccc(-c2cc(-c3c[nH]nc3-c3ccccn3)ccn2)cc1 [GW835314] , please. 4

Recorded %Inh of CCN(CC)CCOc1ccc(Nc2ncc3cc(-c4c(Cl)cccc4Cl)c(=O)n(C)c3n2)cc1 [SB-601273] , please. 58

----------
%Inh overview
system: MAP3K2; details: concentration: 1 μM,replicates: in singlicate; n = 1

{"SMILES_NOTATION": "Cc1n[nH]c2ccc(-c3cc(OC[C@@H](N)Cc4ccccc4)cnc3-c3ccoc3)cc12.O=C(O)C(F)(F)F.O=C(O)C(F)(F)F", "SYSTEM_UNDER_TEST": "MAP3K2", "%Inh": "90.6%"}

Recorded %Inh of C=CC(=O)Nc1cc2c(Nc3ccc(F)c(Cl)c3)ncnc2cc1OCCCN1CCOCC1 , please. 0%

Recorded %Inh of Cc1cc(C(=O)Nc2ccc(Oc3ccc4nc(NC(=O)C5CC5)cn4n3)cc2)nn1-c1ccccc1 , please. 0%

Recorded %Inh of CC(C)N1C(=O)Cc2cc(Nc3ncc(C(F)(F)F)c(NCc4cccc(S(C)(=O)=O)c4)n3)ccc21 , please. 59%

----------
tested on: NEK4; settings: concentration: 1 μM,replicates: in singlicate; n = 1
MEASUREMENT_NAME: %Inh
Please provide the amount together with its unit, number first.

Guide cases for %Inh, answers given:
{"MOLECULE": "Cc1ccc2c(-c3ccncc3)c(-c3ccc(F)cc3)nn2c1.Cl", "%Inh": "11%"}
{"MOLECULE": "CNC(=O)c1ccccc1Sc1ccc2c(/C=C/c3ccccn3)n[nH]c2c1", "%Inh": "0%"}
{"MOLECULE": "C[C@@H]1CCN(C(=O)CC#N)C[C@@H]1N(C)c1ncnc2[nH]ccc12", "%Inh": "0%"}
{"MOLECULE": "CC(C)N1C(=O)Cc2cc(Nc3ncc(C(F)(F)F)c(NCc4cccc(S(C)(=O)=O)c4)n3)ccc21", "%Inh": "0%"}
{"MOLECULE": "CN(C)CC(O)COc1ccc(Nc2nccc(-c3cnn4nc(N5CCOCC5)ccc34)n2)cc1 (centres unmarked)", "%Inh": "37%"}
{"MOLECULE": "C=CC(=O)Nc1cc2c(Nc3ccc(F)c(Cl)c3)ncnc2cc1OCCCN1CCOCC1", "%Inh": "0%"}

Recorded %Inh of CN(C)CCOc1ccc(-c2cc(-c3c[nH]nc3-c3ccccn3)ccn2)cc1 , please. 0%

Recorded %Inh of Cl.Cl.NC[C@H](Cc1ccc(C(F)(F)F)cc1)NC(=O)c1cc(Br)c(-c2ccnc3[nH]ccc23)s1 , please. 4%
